Tested on: BT-549
Test: NCI tumour cell line growth inhibition, 48 h
Calls of active or inactive are those of the source. Rule as the data show it: active = GI50 up to about 1.1 µM and inactive = higher.
Listing: GI50 of selected molecules

NNC1=Nc2ccc(Cl)cc2C(=S)N2CSCC12 (configuration not stated)
> 100 µM (inactive)
CCSc1c2cc(OC)ccc2nc2ccc(OC)cc12
23.7 µM (inactive)

GI50 for CN(C)Cc1cc(/N=N/c2ccccc2)ccc1O is 30.8 µM (inactive)

GI50 for CN(C)C(=O)OC1=CC2CCC(C1)N2C (configuration not stated) is > 100 µM (inactive)

GI50 for COc1cc2c(cc1OC)CC1c3cc(OC)c(OC)cc3CCN1CC2 (configuration not stated) is > 100 µM (inactive)

GI50 for Cc1occc1/C(S)=N\c1ccc(Cl)c(COC(C)(C)C)c1 is 17.6 µM (inactive)

GI50 for CC1(C(=O)O)CCC2(C)CCC3(C)C(=CC(=O)C4C5(C)CCC(O)C(C)(C)C5CCC43C)C2C1 (configuration not stated) is 11.7 µM (inactive)

GI50 for CCC(C#N)NCc1cccc(CNC(C#N)CC)c1 (configuration not stated) is > 100 µM (inactive)

GI50 for CC(C)CNC(=O)Cn1c2c(c3ccccc31)CCCC2 is > 100 µM (inactive)

GI50 for CC[S+]1C2=C(CC(C)(C)CC2=O)[N-]c2ccccc21 (configuration not stated) is > 100 µM (inactive)

GI50 for NS(=O)(=O)c1cc(C(=O)O)c(Cl)c([N+](=O)[O-])c1Cl is > 100 µM (inactive)

GI50 for C=C(CCCCCCCCC)CC(=O)SCCNC(=O)CCNC(=O)C(O)C(C)(C)COP(=O)(O)OP(=O)(O)OCC1OC(n2cnc3c(N)ncnc32)C(O)C1OP(=O)(O)O (configuration not stated) is > 60.8 µM (inactive)
